B1: CDC25B (parent)
chain: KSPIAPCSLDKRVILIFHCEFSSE

- Variants of: B1
- PROCEDURE DETAILS: protein stability index of a GFP-peptide fusion (GPS, HEK-293T) (PSI 1-6); higher = more stable;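 note: lentivirally expressed fusions sorted by FACS into six bins by GFP to DsRed ratio, PSI derived from sequencing read proportions per bin multiplied by bin number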
- PARTICULARS: c terminus: a fixed tail appended
Lab note: anything with protein stability index at or over 3 counts as Criterion met; the rest go in Criterion not met.

Take a look at these entries with their results.
MUTATION DESCRIPTOR | LABEL
V13E | Criterion not met
P3G | Criterion not met
E20H | Criterion not met
S8M | Criterion not met
S22T | Criterion not met

[Q] Please check the record `I4M` and state if its protein stability index is at or above 3.
[A] Criterion met

[Q] Is the recorded value of protein stability index equal to or greater than 3 for this variant? `I14P`
[A] Criterion not met

[Q] Determine whether this variant has protein stability index no lower than 3: `S8I`
[A] Criterion not met

[Q] Evaluate `F21T` : protein stability index at minimum 3?
[A] Criterion met

[Q] Quick check: does `S23T` have protein stability index greater than or equal to 3?
[A] Criterion not met

[Q] Threshold query (protein stability index >= 3) on `V13I`
[A] Criterion met

[Q] Test whether the variant `H18Y` records protein stability index of 3 or higher.
[A] Criterion not met

[Q] Dear colleague, could you confirm whether `P3H` has protein stability index at or above 3?
[A] Criterion not met

[Q] Item `S22W` with protein stability index of 3 or above?
[A] Criterion met

[Q] Check the entry `R12H` : does protein stability index equal or exceed 3?
[A] Criterion not met

[Q] Item `I4N` with protein stability index of 3 or above?
[A] Criterion not met

[Q] Could you verify whether the entry `S22A` shows protein stability index of no less than 3?
[A] Criterion met

[Q] Say whether `E24Y` shows protein stability index of 3 or more.
[A] Criterion not met

[Q] I'd appreciate it if you could say whether `L15S` has protein stability index at least equal to 3.
[A] Criterion not met

[Q] Record `P3M` ; criterion: protein stability index no lower than 3. Met?
[A] Criterion met
